This section presents binders with their documented cAMP Assay (EC-50) values.
Target: melanocortin-5 receptor (human, UniProt P33032 1-325)
Sequence (P33032 whole entry): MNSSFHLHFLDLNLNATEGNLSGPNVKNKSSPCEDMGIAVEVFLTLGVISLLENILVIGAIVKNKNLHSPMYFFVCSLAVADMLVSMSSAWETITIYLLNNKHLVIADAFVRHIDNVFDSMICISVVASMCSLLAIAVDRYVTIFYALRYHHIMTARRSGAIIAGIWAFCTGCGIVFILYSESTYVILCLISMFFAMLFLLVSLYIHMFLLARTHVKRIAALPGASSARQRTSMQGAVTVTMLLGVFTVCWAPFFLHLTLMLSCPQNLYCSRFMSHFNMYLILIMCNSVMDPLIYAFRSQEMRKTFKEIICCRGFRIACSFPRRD
Test: cell-based or functional assay
Bridge positions count the residues as written; N and C are the ends. Square brackets hold non-standard residues; d marks the D form. Ends that are not written are not given here. hCys = N[C@@H](CCS)C(=O)O

{"columns": ["binder", "relation_symbol", "cAMP Assay (EC-50) (nM)"],
 "data": [
  ["Ac-RC[dA][His(3-Me)][dF]RWC-NH2 (disulfide 2-8) [Compound 5: Ac-Arg-cyclo[Cys-D-Ala-His(3-Me)-D-Phe-Arg-Trp-Cys]-NH2]", "=", 1080],
  ["Ac-R[hCys][dA][dF]RWC-NH2 (disulfide 2-7; SMILES CC(=O)N[C@@H](CCCNC(=N)N)C(=O)N[C@H]1CCSSC[C@@H](C(N)=O)NC(=O)[C@H](Cc2c[nH]c3ccccc23)NC(=O)[C@H](CCCNC(=N)N)NC(=O)[C@@H](Cc2ccccc2)NC(=O)[C@@H](C)NC1=O) [Compound 16: Ac-Arg-cyclo[hCys-D-Ala-D-Phe-Arg-Trp-Cys]-NH2]", ">", 10000],
  ["RCAHFRWC (cysteine pairing not given here; also: further groups not given here) [Peptide 1]", "=", 1600],
  ["Ac-RC[dA]N[dF]RWC-NH2 (disulfide 2-8; SMILES CC(=O)N[C@@H](CCCNC(=N)N)C(=O)N[C@H]1CSSC[C@@H](C(N)=O)NC(=O)[C@H](Cc2c[nH]c3ccccc23)NC(=O)[C@H](CCCNC(=N)N)NC(=O)[C@@H](Cc2ccccc2)NC(=O)[C@H](CC(N)=O)NC(=O)[C@@H](C)NC1=O) [Compound 9: Ac-Arg-cyclo[Cys-D-Ala-Asn-D-Phe-Arg-Trp-Cys]-NH2]", "=", 1490]
]}

meta.source: patent US20160022764A1
